property_label: logP

Enquiry: What value of logP has been recorded for this entry: "Clc1cc(Oc2cc(Cl)c(Cl)c(Cl)c2Cl)c(Cl)c(Cl)c1Cl"
Return: 7.78

Enquiry: Param item = "Clc1cc(Cl)c(Oc2cc(Cl)c(Cl)c(Cl)c2Cl)cc1Cl" ; retrieve measured logP.
Return: 7.46

Enquiry: Fill blank: measured logP of the compound "Clc1cc(Oc2c(Cl)ccc(Cl)c2Cl)c(Cl)c(Cl)c1Cl" is ____.
Return: 6.98

Enquiry: Which logP is listed for "Clc1ccc(Cl)c(Oc2cc(Cl)c(Cl)cc2Cl)c1" ?
Return: 6.22

Enquiry: I would be grateful if you could share the reported logP for "Clc1ccc(Oc2c(Cl)ccc(Cl)c2Cl)c(Cl)c1Cl" .
Return: 6.65

Enquiry: GET /values?readout=logP&item= "Clc1ccc(Oc2cc(Cl)c(Cl)c(Cl)c2Cl)c(Cl)c1"
Return: 6.72

---

property_label: logP

For orientation, consider the following solved cases.
Enquiry: If you can, please state the reported logP value of "Clc1cc(Cl)c(Oc2cc(Cl)c(Cl)c(Cl)c2)cc1Cl" .
Return: 7.11

Enquiry: Fill blank: measured logP of the compound "Clc1ccc(Oc2ccc(Cl)c(Cl)c2Cl)c(Cl)c1" is ____.
Return: 6.28

Enquiry: Could you tell me which logP is on file for "Clc1ccc(Oc2cc(Cl)cc(Cl)c2)cc1" ?
Return: 5.77

Enquiry: Fill blank: measured logP of the compound "Clc1cccc(Oc2ccc(Cl)c(Cl)c2Cl)c1Cl" is ____.
Return: 6.3

(I) Clc1cc(Cl)c(Oc2c(Cl)c(Cl)c(Cl)c(Cl)c2Cl)cc1Cl
(II) Clc1cc(Cl)cc(Oc2ccccc2)c1
Enquiry: Lower value of logP belongs to which: I or II ? // return label of chosen record
Return: II

---

property_label: logP

Enquiry: Please give the measured logP for this compound: "Clc1ccc(Oc2cccc(Cl)c2Cl)cc1Cl"
Return: 5.99

Enquiry: Suppose we examine the compound "Clc1cccc(Oc2ccc(Cl)c(Cl)c2)c1" ; what logP value has been reported?
Return: 5.74

Enquiry: Looking for the measured logP of "Clc1ccc(Oc2cccc(Cl)c2Cl)c(Cl)c1" , can you help?
Return: 5.88

Enquiry: Need logP, item "Clc1ccc(Cl)c(Oc2ccc(Cl)c(Cl)c2)c1"
Return: 6.11

Enquiry: Dear colleague, I am looking for the recorded logP of the following compound: "Clc1cc(Cl)cc(Oc2ccc(Cl)c(Cl)c2Cl)c1"
Return: 6.58

Enquiry: Reported logP, compound "Clc1ccc(Oc2ccccc2)cc1Cl" : ____
Return: 4.99

Enquiry: Would you mind telling me what logP value was observed for "Clc1ccc(Oc2cc(Cl)cc(Cl)c2Cl)cc1" ?
Return: 6.21

Enquiry: Can you share its logP? I mean this compound: "Clc1cc(Cl)cc(Oc2ccc(Cl)cc2Cl)c1"
Return: 6.13

Enquiry: Fill in: logP of "Clc1cc(Oc2c(Cl)c(Cl)cc(Cl)c2Cl)c(Cl)c(Cl)c1Cl" is ___
Return: 7.63

Enquiry: Please give the measured logP for this compound: "Clc1cc(Cl)c(Oc2cccc(Cl)c2Cl)cc1Cl"
Return: 6.22

---

property_label: logP

Enquiry: Reported logP, molecule "Clc1ccc(Oc2c(Cl)c(Cl)cc(Cl)c2Cl)c(Cl)c1Cl" : ____
Return: 7.14

Enquiry: Which logP is listed for "Clc1c(Cl)c(Cl)c(Oc2c(Cl)c(Cl)c(Cl)c(Cl)c2Cl)c(Cl)c1Cl" ?
Return: 8.16

Enquiry: Find the recorded logP belonging to "Clc1cc(Cl)c(Cl)c(Oc2ccccc2)c1" and report it.
Return: 5.62

Enquiry: Fill in: logP of "Clc1ccc(Oc2ccc(Cl)cc2Cl)c(Cl)c1" is ___
Return: 5.95

Enquiry: logP for "Clc1ccc(Oc2ccccc2)cc1" ?
Return: 4.7

Enquiry: GET /values?readout=logP&item= "Clc1ccc(Oc2ccccc2)c(Cl)c1Cl"
Return: 5.55

Enquiry: Given the entry "Clc1ccc(Oc2ccc(Cl)c(Cl)c2Cl)cc1Cl" , report its measured logP.
Return: 6.51

Enquiry: Given the molecule "Clc1ccc(Oc2c(Cl)c(Cl)c(Cl)c(Cl)c2Cl)cc1" , what is its reported logP?
Return: 6.95

Enquiry: Using the record for "Clc1cc(Cl)c(Oc2c(Cl)cccc2Cl)cc1Cl" , report its logP.
Return: 5.98

Enquiry: Given the molecule "Clc1ccc(Oc2c(Cl)c(Cl)c(Cl)c(Cl)c2Cl)cc1Cl" , what is its reported logP?
Return: 7.31

Enquiry: Please report the recorded logP for "Clc1cc(Cl)c(Oc2ccc(Cl)c(Cl)c2Cl)cc1Cl" .
Return: 7.01

Enquiry: Need logP of "Clc1ccc(Oc2cc(Cl)c(Cl)cc2Cl)cc1" , thanks.
Return: 5.99

Enquiry: # input molecule: "Clc1cccc(Oc2ccccc2)c1" ; wanted: its logP
Return: 4.75

Enquiry: What value of logP has been recorded for this entry: "Clc1ccc(Oc2ccc(Cl)c(Cl)c2Cl)c(Cl)c1Cl"
Return: 6.82

Enquiry: Quick one: logP of "Clc1ccc(Oc2c(Cl)ccc(Cl)c2Cl)cc1Cl" ?
Return: 6.31

Enquiry: So what does the record say about logP for "Clc1ccc(Cl)c(Oc2ccccc2)c1" ?
Return: 5.13

Enquiry: Would you kindly share the measured logP for "Clc1ccc(Oc2cccc(Cl)c2)cc1" ?
Return: 5.13

Enquiry: What value of logP has been reported for the following molecule? "Clc1ccc(Cl)c(Oc2ccc(Cl)c(Cl)c2Cl)c1"
Return: 6.51

Enquiry: Give the measured logP of "Clc1cc(Cl)c(Oc2ccccc2)c(Cl)c1" .
Return: 5.32

Enquiry: Which logP value belongs to "Clc1cc(Cl)cc(Oc2ccc(Cl)c(Cl)c2)c1" ?
Return: 6.22

Enquiry: Given "Clc1cc(Cl)c(Oc2cc(Cl)c(Cl)cc2Cl)cc1Cl" , state its recorded logP.
Return: 6.72

Enquiry: # input molecule: "Clc1ccc(Oc2cc(Cl)c(Cl)cc2Cl)cc1Cl" ; wanted: its logP
Return: 6.6

Enquiry: Suppose we examine the molecule "Clc1ccc(Oc2c(Cl)ccc(Cl)c2Cl)c(Cl)c1" ; what logP value has been reported?
Return: 6.06

Enquiry: Need logP, item "Clc1ccc(Oc2c(Cl)cc(Cl)c(Cl)c2Cl)c(Cl)c1"
Return: 6.84

Enquiry: Record request: logP value, item "Clc1ccc(Oc2c(Cl)c(Cl)cc(Cl)c2Cl)cc1Cl"
Return: 6.78

Enquiry: Which logP reading was recorded for the molecule "Clc1ccc(Oc2c(Cl)cc(Cl)cc2Cl)cc1" ?
Return: 5.92
